Known cell viability of a selection of compounds
Tested on: U2OS
Experiment summary: cell viability relative to DMSO; higher = less toxic
Run parameters: 72 h; 1 nM
Result type: cell viability

>>> reported_result("CCC(CC)(NC(=O)C(C)C)C(=O)N[C@@H](CCCNC(=N)N)C(=O)NC1(C(=O)NC(c2ccc(F)cc2)c2ccc(F)cc2)CCCC1 [MM-102]")
"97.8%"
>>> reported_result("O=C(c1ccc(Cl)cc1)N(Cc1ccccc1)C1CCCCC1 [FPS-ZM1]")
"98%"
>>> reported_result("CN1CC[C@@H](NC(=O)Nc2ccc(C#N)cc2)C[C@@H]1c1nc2ccccc2[nH]1 [glasdegib]")
"96.3%"
>>> reported_result("Cn1cc(-c2ccc3c(c2)CCN3C(=O)Cc2cccc(C(F)(F)F)c2)c2c(N)ncnc21")
"103%"
